Recorded values, source patent US9376425B2.

Consider the following molecules and their measured IC50 readings.
biological target: human MDM2 (GST-hMDM2 1-188), interaction with biotinylated-p53 (1-83) (Homo sapiens); construct: Amino acid residues 1-188 of human MDM2 were expressed; assay: improved HTRF assay (HTRF2 assay), inhibition of HDM2-p53 interaction; settings: 0.2 nM GST-hMDM2, 0.5 nM biotinylated-p53, 100 mM KF
Sequence (Q00987 1-188): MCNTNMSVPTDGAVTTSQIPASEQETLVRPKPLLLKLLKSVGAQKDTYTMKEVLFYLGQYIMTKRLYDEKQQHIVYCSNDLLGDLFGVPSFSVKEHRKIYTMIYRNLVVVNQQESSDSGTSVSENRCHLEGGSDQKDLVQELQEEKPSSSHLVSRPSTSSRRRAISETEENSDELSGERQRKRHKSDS
Structures can show the parent of a compound that is named as a salt.

molecule	studySystem	operatorSymbol	IC50 (nM)
CC(C)(C)NS(=O)(=O)C[C@H](C1CC1)N1C(=O)[C@@H](CC(=O)O)O[C@H](c2cccc(Cl)c2)[C@H]1c1ccc(Cl)cc1 (single isomer, unassigned) [Example 292]	human MDM2 (GST-hMDM2 1-188), interaction with biotinylated-p53 (1-83) (Homo sapiens)	<	1
O=C(C[C@H]1O[C@H](c2cccc(Cl)c2)[C@@H](c2ccc(Cl)cc2)N([C@H](CN(c2ccccc2F)S(=O)(=O)C2CC2)C2CC2)C1=O)Nc1ccccn1 (single isomer, unassigned) [Example 368]	human MDM2 (GST-hMDM2 1-188), interaction with biotinylated-p53 (1-83) (Homo sapiens)	<	1
CNC(=O)C[C@H]1O[C@H](c2cccc(Cl)c2)[C@@H](c2ccc(Cl)cc2)N([C@@H](C)CS(=O)(=O)C(C)(C)C)C1=O (single isomer, unassigned) [Example 228]	human MDM2 (GST-hMDM2 1-188), interaction with biotinylated-p53 (1-83) (Homo sapiens)	=	14
CC[C@@H](CS(=O)(=O)C(C)C)N1C(=O)[C@@H](CC(=O)O)O[C@H](c2cc(Cl)cc(Cl)c2)[C@H]1c1ccc(Cl)cc1 (single isomer, unassigned) [Example 145]	human MDM2 (GST-hMDM2 1-188), interaction with biotinylated-p53 (1-83) (Homo sapiens)	=	8
CC[C@@H](CS(=O)(=O)C(C)(C)C)N1C(=O)C(CN)O[C@H](c2cccc(Cl)c2)[C@H]1c1ccc(Cl)cc1 (mixture of isomers) [Example 378, hydrochloride]	human MDM2 (GST-hMDM2 1-188), interaction with biotinylated-p53 (1-83) (Homo sapiens)	=	142
CC(C)(C)S(=O)(=O)C[C@H](C1CC1)N1C(=O)[C@@H](Cc2ncn[nH]2)O[C@H](c2cccc(Cl)c2)[C@H]1c1ccc(Cl)cc1 (single isomer, unassigned) [Example 389]	human MDM2 (GST-hMDM2 1-188), interaction with biotinylated-p53 (1-83) (Homo sapiens)	=	19
CC(C)(C)S(=O)(=O)C[C@H](C1CC1)N1C(=O)[C@@H](CC(N)=O)O[C@H](c2cccc(Cl)c2)[C@H]1c1ccc(Cl)cc1 (single isomer, unassigned) [Example 357]	human MDM2 (GST-hMDM2 1-188), interaction with biotinylated-p53 (1-83) (Homo sapiens)	=	6
C[C@H]1CCCN1S(=O)(=O)C[C@H](C1CC1)N1C(=O)[C@@H](CC(=O)O)O[C@H](c2cccc(Cl)c2)[C@H]1c1ccc(Cl)cc1 (single isomer, unassigned) [Example 297]	human MDM2 (GST-hMDM2 1-188), interaction with biotinylated-p53 (1-83) (Homo sapiens)	<	1
CC(C)(C)S(=O)(=O)C[C@H](C1CC1)N1C(=O)[C@@H](Cc2cnn[nH]2)O[C@H](c2cccc(Cl)c2)[C@H]1c1ccc(Cl)cc1 (single isomer, unassigned) [Example 385]	human MDM2 (GST-hMDM2 1-188), interaction with biotinylated-p53 (1-83) (Homo sapiens)	=	4
CC[C@@H](CS(=O)(=O)C(C)C)N1C(=O)[C@@H](CC(=O)O)O[C@H](c2cc(Cl)cc(Cl)c2)[C@H]1c1ccc(Cl)cc1 (single isomer, unassigned) [Example 146]	human MDM2 (GST-hMDM2 1-188), interaction with biotinylated-p53 (1-83) (Homo sapiens)	=	15
